Where do the numbers come from? From patent US20210114983A1.

experimental_readout: IC50

I looked up C=CC(=O)Nc1cc(Oc2nc(Nc3ccc(N4CCN(C)CC4)cc3OC)ccc2N2CCCC2)ccc1C(F)(F)F and its IC50 for rhCatC (Cathepsin C) (Homo sapiens) was 0.003 to 0.3 µM

I looked up C=CC(=O)Nc1cc(Oc2nc(Nc3ccc(N4CCN(C)CC4)cc3OC)ccc2N2CCCC(O)C2)ccc1C (stereo not shown) and its IC50 for rhCatC (Cathepsin C) (Homo sapiens) was 0.003 to 0.3 µM

I looked up C=CC(=O)Nc1cccc(Oc2nc(N(Cc3ccccc3)c3ccc(N4CCNCC4)cc3)ccc2Cl)c1 and its IC50 for rhCatC (Cathepsin C) (Homo sapiens) was 0.3 to 30 µM

I looked up C=CC(=O)Nc1cc(Oc2nc(Nc3ccc(N4CCN(C)CC4)cc3OC)ccc2N2CCOCC2)ccc1C and its IC50 for rhCatC (Cathepsin C) (Homo sapiens) was 0.003 to 0.3 µM

I looked up C=CC(=O)Nc1cc(Oc2nc(Nc3ccc(N4CCN(C)CC4)cc3OC)ccc2N2CCN(C)CC2)ccc1C and its IC50 for rhCatC (Cathepsin C) (Homo sapiens) was 0.003 to 0.3 µM

I looked up C=CC(=O)Nc1cccc(Oc2nc(Nc3ccc(N4CCN(C)CC4)cc3OC)ccc2N2CCCC2)c1C and its IC50 for rhCatC (Cathepsin C) (Homo sapiens) was 0.3 to 30 µM

I looked up C=CC(=O)Nc1cccc(Oc2nc(Nc3ccc(N4CCN(C)CC4)cc3OC)ccc2N2CCCC2)c1 and its IC50 for rhCatC (Cathepsin C) (Homo sapiens) was 0.003 to 0.3 µM
